target: Voltage-dependent N-type calcium channel subunit alpha-1B (Rattus norvegicus, UniProt Q02294); test: Displacement of [125I]GVIA from Cav2.2 channel in rat brain by scintillation counting; format: tissue-based; settings: read-out: EC50
Sequence (Q02294 whole entry): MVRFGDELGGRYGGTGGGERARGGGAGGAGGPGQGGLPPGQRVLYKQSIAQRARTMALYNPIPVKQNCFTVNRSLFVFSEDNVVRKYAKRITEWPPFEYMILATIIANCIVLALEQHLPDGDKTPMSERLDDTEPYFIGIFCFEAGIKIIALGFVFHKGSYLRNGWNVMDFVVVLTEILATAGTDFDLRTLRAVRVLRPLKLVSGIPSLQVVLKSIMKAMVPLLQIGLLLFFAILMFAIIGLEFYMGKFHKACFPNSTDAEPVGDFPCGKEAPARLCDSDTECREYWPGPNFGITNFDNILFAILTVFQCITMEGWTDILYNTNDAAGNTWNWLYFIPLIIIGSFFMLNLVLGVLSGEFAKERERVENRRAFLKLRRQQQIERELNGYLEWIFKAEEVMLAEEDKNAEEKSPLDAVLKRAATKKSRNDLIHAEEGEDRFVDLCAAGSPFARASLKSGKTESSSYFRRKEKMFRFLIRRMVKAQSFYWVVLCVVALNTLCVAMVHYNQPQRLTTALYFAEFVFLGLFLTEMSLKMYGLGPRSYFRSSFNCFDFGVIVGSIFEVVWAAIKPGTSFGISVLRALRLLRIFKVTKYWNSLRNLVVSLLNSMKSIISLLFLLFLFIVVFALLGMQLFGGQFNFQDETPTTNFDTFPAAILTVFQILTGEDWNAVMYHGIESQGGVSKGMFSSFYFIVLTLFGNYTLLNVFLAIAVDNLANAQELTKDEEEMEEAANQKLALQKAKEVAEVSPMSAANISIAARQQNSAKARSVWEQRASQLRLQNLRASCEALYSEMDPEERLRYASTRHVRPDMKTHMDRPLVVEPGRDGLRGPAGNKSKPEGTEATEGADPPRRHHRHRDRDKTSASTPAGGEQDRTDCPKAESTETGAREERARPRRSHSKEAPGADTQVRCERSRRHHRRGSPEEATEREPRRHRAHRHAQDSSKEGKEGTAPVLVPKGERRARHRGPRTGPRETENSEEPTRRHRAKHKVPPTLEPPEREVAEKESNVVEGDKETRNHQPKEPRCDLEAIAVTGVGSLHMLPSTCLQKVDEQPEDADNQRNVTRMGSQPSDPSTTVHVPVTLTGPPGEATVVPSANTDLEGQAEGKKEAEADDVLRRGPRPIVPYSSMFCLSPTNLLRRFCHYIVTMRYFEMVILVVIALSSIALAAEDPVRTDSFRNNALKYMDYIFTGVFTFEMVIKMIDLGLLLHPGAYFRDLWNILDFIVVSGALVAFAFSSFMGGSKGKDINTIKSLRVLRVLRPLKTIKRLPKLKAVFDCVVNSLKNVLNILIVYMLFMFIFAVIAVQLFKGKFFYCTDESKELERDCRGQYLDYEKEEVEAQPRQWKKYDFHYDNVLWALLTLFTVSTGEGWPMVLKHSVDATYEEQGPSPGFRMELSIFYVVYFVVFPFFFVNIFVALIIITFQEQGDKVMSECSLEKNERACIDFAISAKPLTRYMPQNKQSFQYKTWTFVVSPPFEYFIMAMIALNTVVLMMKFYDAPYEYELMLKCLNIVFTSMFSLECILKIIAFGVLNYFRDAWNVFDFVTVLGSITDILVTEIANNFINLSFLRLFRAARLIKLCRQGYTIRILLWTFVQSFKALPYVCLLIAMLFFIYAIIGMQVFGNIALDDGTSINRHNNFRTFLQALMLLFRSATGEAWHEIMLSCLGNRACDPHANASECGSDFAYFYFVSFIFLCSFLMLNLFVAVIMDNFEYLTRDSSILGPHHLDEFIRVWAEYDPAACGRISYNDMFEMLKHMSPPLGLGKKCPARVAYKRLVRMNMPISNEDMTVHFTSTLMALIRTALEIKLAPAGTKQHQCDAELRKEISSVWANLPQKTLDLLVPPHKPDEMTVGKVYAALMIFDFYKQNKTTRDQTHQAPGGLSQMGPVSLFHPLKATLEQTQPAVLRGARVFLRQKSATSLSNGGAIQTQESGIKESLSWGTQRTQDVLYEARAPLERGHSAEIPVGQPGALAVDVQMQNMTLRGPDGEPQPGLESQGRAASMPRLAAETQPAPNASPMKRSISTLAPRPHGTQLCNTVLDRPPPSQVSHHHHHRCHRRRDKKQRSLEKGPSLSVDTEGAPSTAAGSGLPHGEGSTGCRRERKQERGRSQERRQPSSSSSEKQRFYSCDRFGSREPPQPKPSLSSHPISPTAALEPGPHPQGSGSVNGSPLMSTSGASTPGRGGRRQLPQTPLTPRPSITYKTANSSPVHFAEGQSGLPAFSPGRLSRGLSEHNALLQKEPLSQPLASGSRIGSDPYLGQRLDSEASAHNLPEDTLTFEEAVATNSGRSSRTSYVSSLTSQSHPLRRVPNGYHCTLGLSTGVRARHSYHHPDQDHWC
Listing of entries alongside the reported pEC50.
Just the number, please; pEC50 means minus log10 of the concentration in mol/L.

structure_smiles_string=NCCCCCCCC(=O)Nc1ccc(OCCCCN)cc1C(=O)Nc1ccc(Oc2ccccc2)cc1 readout_name=pEC50 quantitative_readout=4.05
structure_smiles_string=NC(N)=NCCCCCCCC(=O)Nc1ccc(OCCCN=C(N)N)cc1C(=O)Nc1ccc(Oc2ccc(F)cc2)cc1 readout_name=pEC50 quantitative_readout=5.22
structure_smiles_string=NC(N)=NCCCCCC(=O)Nc1ccc(OCCCN=C(N)N)cc1C(=O)Nc1ccc(Oc2ccccc2)cc1 readout_name=pEC50 quantitative_readout=4.80
structure_smiles_string=NCCCCCC(=O)Nc1ccc(OCCCCN)cc1C(=O)Nc1ccc(Oc2ccccc2)cc1 readout_name=pEC50 quantitative_readout=4.00
structure_smiles_string=NCCCCCC(=O)Nc1ccc(OCCCN)cc1C(=O)Nc1ccc(Oc2ccccc2)cc1 readout_name=pEC50 quantitative_readout=3.97

What measured pEC50 goes with "NCCCCC(=O)Nc1ccc(OCCCN)cc1C(=O)Nc1ccc(Oc2ccccc2)cc1" ?
4.11

What measured pEC50 goes with "NC(N)=NCCCCCCCC(=O)Nc1ccc(OCCCN=C(N)N)cc1C(=O)Nc1ccc(Oc2ccccc2)cc1" ?
4.89

What measured pEC50 goes with "NCCCCCCCC(=O)Nc1ccc(OCCCN)cc1C(=O)Nc1ccc(Oc2ccccc2)cc1" ?
4.14

What measured pEC50 goes with "NC(N)=NCCCCC(=O)Nc1ccc(OCCCN=C(N)N)cc1C(=O)Nc1ccc(Oc2ccccc2)cc1" ?
3.94
